Data credit: paper PMC6908968

tested-on: T1, thermolysin-cleaved EBOV GP on Jurkat-GP cells (cleaved GP) (Zaire ebolavirus, Makona (GP1 core …, strain))
T1 chain 1: not shown
T1 chain 2: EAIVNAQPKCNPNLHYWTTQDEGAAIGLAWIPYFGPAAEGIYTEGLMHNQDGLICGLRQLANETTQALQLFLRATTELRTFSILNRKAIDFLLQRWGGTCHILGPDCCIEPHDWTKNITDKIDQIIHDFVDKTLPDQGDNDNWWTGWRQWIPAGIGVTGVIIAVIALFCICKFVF
parameter: binding result

5.6.c3083 (antibody, V domains shown) VH: QVQLVQSGVEVKKPGASVKLSCKASGYTFTTYGISWVRQAPGQGLEWMGWISAYDDNANYGQQFQGRVTMTTDTSTSTAYMELRSLRSDDTAVYFCARCGGEFIWGWLDPWGQGTLVTVSS VL: QSALTQPASVSGSPGQSITISCTGTSSDIGGYNYVSWYQQHPGLAPKLMIYDVSYRPSGVSNRFSGSKSGNTASLTISGLQAEDEADYYCSSYTSSGTLVFGGGTKLTVL | binds
5.6.c3397 (antibody, V domains shown) VH: QVQLQESGPGLVKPSETLSLTCTVSGGSISTYYWSWIRQTPGKGLECIGYINYFGSTNYNPSLKSRVTISIDTSKNQFSLKLSSVTAADTAVYYCARHYGVGTYSGGWFDPWGQGTLVTVSS VL: DIQMTQSPSSLSASVGDRVTVTCRASQRINSFLNWYQQKPGKAPKLLIYAASSLQSGVPSRFSGTGSGTDFTLTISSLQPEDFATYYCQQSYSSPRTFGQGTKVEIR | binds
5.6.c2931 (antibody, V domains shown) VH: QLQLQESGPGLVKPSQTLSLTCTVAGGSISRSSYYWGWIRQSPGKGLEWIGSIHYSGSTHYNSSLRSRVTISVDTSKNQFSLNLTSVTAADTAVYYCVRQSSVPYFDWSSPGQIDPWGQGTLVTVSS VL: QLVLTQSPSASASLGASVKFTCTLSSGHRSYAIAWHQQQPEKGPRYLMKINSDGSHNKGDGIPDRFSGSSSGDERYLTISSLQSEDEADYYCQTWGTGIQVFGGGTKLTVL | binds
